System: A549 lung cancer cells
Assay: Cytotoxicity of A549 lung cancer cells (relative cell density)
Format: cell-based
Conditions: relative cell density as percent of control, FIG. 2
Threshold 20 µM: LD50 strictly smaller gives YES, otherwise NO.

>  <molecule>
COC(=O)c1ccc(/N=N/N2CCN(c3ccccc3)CC2)cc1

>  <groupLabel>
NO

$$$$
>  <molecule>
CN(C)/N=N/c1[nH]cnc1C(N)=O [dacarbazine, reference compound]

>  <groupLabel>
NO

$$$$
>  <molecule>
Cn1nnc2c(C(N)=O)ncn2c1=O [Temozolomide, reference compound]

>  <groupLabel>
NO

$$$$
>  <molecule>
CC(=O)c1ccc(/N=N/N2CCN(c3ccc(Cl)c(Cl)c3)CC2)cc1

>  <groupLabel>
YES

$$$$
>  <molecule>
O=[N+]([O-])c1ccc(/N=N/N2CCN(c3ccccc3)CC2)cc1

>  <groupLabel>
YES

$$$$

For the next question, use this molecule.
Qu. Say whether its LD50 is strictly beneath 20 µM. Entry: "CC(=O)c1ccc(/N=N/N2CCN(c3ccccn3)CC2)cc1"
Ans. YES
